Tested on: NCI-H2170
Assay: relative viability (nuclei count vs DMSO), 5 days (fraction); higher = more cells survive
Details: first compound 4 µM
Consider the following molecules and their measured relative viability readings.

# molecule, relative viability
records = [
    ("COc1cc(N2CCC(C(N)=O)CC2)ccc1Nc1nc(N)c(Cl)c(Nc2ccccc2S(=O)(=O)C(C)C)n1 [HG-5-88-01] + COc1cccc2cc(-c3nc([C@H]4CC[C@H](C(=O)O)CC4)n4ncnc(N)c34)[nH]c12 [OSI-027] (partner 0.5 µM)", 0.601),
    ("C[C@@H]1CN(CC(=O)Nc2ccc3c(c2)Cc2cccc(-c4cc(=O)cc(N5CCOCC5)o4)c2S3)C[C@H](C)O1 + NC(=O)Nc1cc(-c2cccc(F)c2)sc1C(=O)N[C@H]1CCCNC1 [AZD7762] (partner 0.2 µM)", 0.633),
    ("COc1cc(N2CCC(C(N)=O)CC2)ccc1Nc1nc(N)c(Cl)c(Nc2ccccc2S(=O)(=O)C(C)C)n1 [HG-5-88-01] + NC(=O)Nc1cc(-c2cccc(F)c2)sc1C(=O)N[C@H]1CCCNC1 [AZD7762] (partner 0.2 µM)", 0.934),
]

---

Test system: A-427
Experiment: relative viability (nuclei count vs DMSO), 5 days (fraction); higher = more cells survive
Settings: first compound 0.4 µM

# compound, test_system, relative viability
rows = [
    ("C[C@@H]1CN(CC(=O)Nc2ccc3c(c2)Cc2cccc(-c4cc(=O)cc(N5CCOCC5)o4)c2S3)C[C@H](C)O1 + COc1cc2c(Oc3ccc(NC(=O)C4(C(=O)Nc5ccc(F)cc5)CC4)cc3F)ccnc2cc1OCCCN1CCOCC1 [Foretinib] (partner 0.25 µM)", "A-427", 1.11),
    ("C[C@@H]1CN(CC(=O)Nc2ccc3c(c2)Cc2cccc(-c4cc(=O)cc(N5CCOCC5)o4)c2S3)C[C@H](C)O1 + O=C(CCCCCCC(=O)Nc1ccccc1)NO [Vorinostat] (partner 1 µM)", "A-427", 0.908),
    ("COc1cc(N2CCC(C(N)=O)CC2)ccc1Nc1nc(N)c(Cl)c(Nc2ccccc2S(=O)(=O)C(C)C)n1 [HG-5-88-01] + Cc1nc(NC(=O)N2CCC[C@H]2C(N)=O)sc1-c1ccnc(C(C)(C)C(F)(F)F)c1 [Alpelisib] (partner 2 µM)", "A-427", 1.16),
]

---

We begin with a simple list: items and their reported relative viability.
Tested on: PC-3 [JPC-3]
Test: relative viability (nuclei count vs DMSO), 5 days (fraction); higher = more cells survive
Conditions: first compound 0.03162 µM

# molecule, relative viability
measured = [
    ("CC(C)Oc1cc(Nc2nc(N[C@@H](C)c3ccc(F)cn3)ncc2Cl)n[nH]1 [AZ23] + C[C@@H](Oc1cc(-c2cnn(C3CCNCC3)c2)cnc1N)c1c(Cl)ccc(F)c1Cl [Crizotinib] (partner 1 µM)", 1.07),
    ("CC(C)Oc1cc(Nc2nc(N[C@@H](C)c3ccc(F)cn3)ncc2Cl)n[nH]1 [AZ23] + C[C@]1(O)C[C@@H](c2nc(-c3ccc4ccc(-c5ccccc5)nc4c3)c3c(N)nccn32)C1 [Linsitinib] (partner 1 µM)", 1.04),
    ("CC(C)Oc1cc(Nc2nc(N[C@@H](C)c3ccc(F)cn3)ncc2Cl)n[nH]1 [AZ23] + CC1(C)CCC(c2ccc(Cl)cc2)=C(CN2CCN(c3ccc(C(=O)NS(=O)(=O)c4ccc(N[C@H](CCN5CCOCC5)CSc5ccccc5)c(S(=O)(=O)C(F)(F)F)c4)cc3)CC2)C1 [Navitoclax] (partner 0.5 µM)", 0.863),
    ("CC(C)Oc1cc(Nc2nc(N[C@@H](C)c3ccc(F)cn3)ncc2Cl)n[nH]1 [AZ23] + COc1cccc2cc(-c3nc([C@H]4CC[C@H](C(=O)O)CC4)n4ncnc(N)c34)[nH]c12 [OSI-027] (partner 0.5 µM)", 0.71),
]
